System: HOP-62 NSCLC
Assay: NCI-60 one-dose screen, 48 h
Details: 10 µM
The panel holds about 83,000 compounds, 20% with a hit somewhere; the sample as a whole holds those more often. Activity calls are given as the source filed them. The calls were made as follows: active = growth percent below 10; inactive = the rest.
Just give me one of these, please: active, inactive

Would you please look over these solved cases?
N#Cc1nc(-c2ccccc2)oc1N1CCC(S(=O)(=O)F)CC1 = inactive
COc1cc(OC)c(S(=O)(=O)N(CCCl)CCCl)cc1C(=O)/C=C/c1ccc(Cl)cc1 = inactive
CC(C)=CCc1c2c(c(O)c3c1O[C@]14C(=C[C@@H]5C[C@H]1C(C)(C)O[C@@]4(C/C=C(/C)C(=O)O)C5=O)C3=O)C=CC(C)(C)O2 = active

With those in mind, consider the next compound.
Input: What was the test verdict on `CC1=C(CCC=NNC(N)=O)C2=C(C)C3(CC3)[C@@](C)(O)C(=O)C2=C1` ?
Output: active

====

The molecules listed here are annotated with their growth.
Tested on: HL-60(TB) leukemia
Test: NCI-60 one-dose screen, 48 h (100 = growth as untreated, 0 = no growth, -100 = all killed)
Conditions: 10 µM unless noted
Compounds without any hit were thinned out: in the full panel of roughly 83,000, 20% have a hit.
A number alone suffices; assume %.

// below: answered molecules
COc1ccccc1/C=C/C(=O)c1nnn(-c2ccc(F)cc2)c1C = 31.9
COc1ccc(/C=N/NC(=O)c2cn(C3CC3)c3c(OC)c(N4CC5CCCNC5C4)c(F)cc3c2=O)cc1 (centres undefined) = 80.6
COc1cc2oc(-c3cccc(NC(=O)c4cc(NC(=O)[C@H](C)NC(=O)OC(C)(C)C)ccc4C)c3)cc(=O)c2c(OC)c1OC = 62.6

Response field growth (HL-60(TB) leukemia) for item `O=C(CSc1nc2ccccc2c(=O)n1-c1ccc(Cl)cc1)N/N=C/c1ccc(N2CCCCC2)cc1` : 108

====

Test system: SR leukemia
Test: NCI-60 one-dose screen, 48 h
Details: 10 µM
The panel holds about 83,000 compounds, 20% with a hit somewhere; the sample as a whole holds those more often. The source made the active and inactive calls. How the source made its calls: active means growth percent below 10; inactive means the rest.
Just give me one of these, please: active, inactive

Would you please look over these solved cases?
CC1=C[C@H]2O[C@@H]3C[C@@H](O)[C@](C)([C@@]2(C)CC1)[C@@]31CO1 = inactive
CC1=C2C(=O)[C@](C)(CO)C=C2C(=O)[C@](C)(O)C12CC2 = inactive
COc1cccc2c1cc([N+](=O)[O-])c1c(C(=O)O)cc3c(c12)OCO3 = inactive

Input: What was the test verdict on CN1C(=O)[C@]23SSC1(C)C(=O)N2[C@H]1Nc2ccccc2C1([C@@]12c4ccccc4N[C@@H]1N1C(=O)C4(C)SS[C@]1(C(=O)N4C)[C@H]2O)[C@@H]3O (stereo partly specified) ?
Output: active

Input: What was the test verdict on `O=C(CCCc1ccc(N(CCCl)CCCl)cc1)OCc1ccccc1` ?
Output: inactive

Input: What was the test verdict on `COc1cc2c(O[C@@H]3OC[C@H](O)[C@H](O)[C@H]3O)c3c(c(-c4ccc5c(c4)OCO5)c2cc1OC)C(=O)OC3` ?
Output: inactive

====

Tested on: KM12 colon
Experiment: NCI-60 one-dose screen, 48 h (100 = growth as untreated, 0 = no growth, -100 = all killed)
Conditions: 10 µM
Compounds without any hit were thinned out: in the full panel of roughly 83,000, 20% have a hit.
observable: growth (%)
A number alone suffices; assume %.

// below: answered compounds
C[C@@H]1CCC/C=C/[C@H]2C[C@@H](O)C[C@@H]2[C@@H](O)/C=C/C(=O)O1 = 14.9
CC1=C2C(=C[C@@](C)(C=O)[C@@H]2O)C(=O)[C@](C)(O)C12CC2 = 27.4

Documented growth of `COc1cc(OC)c(S(=O)(=O)N(CCCl)CCCl)cc1C(=O)/C=C/c1ccc(Cl)cc1` : 23.4

====

Tested on: HL-60(TB) leukemia
Experiment: NCI-60 one-dose screen, 48 h (100 = growth as untreated, 0 = no growth, -100 = all killed)
Details: 10 µM unless noted
The panel holds about 83,000 compounds, 20% with a hit somewhere; the sample as a whole holds those more often.
The compounds listed here are annotated with their growth.
A number alone suffices; assume %.

Response field growth (HL-60(TB) leukemia) for item `CCOC(=O)c1c(Nc2ccccc2)nn2c(-c3ccc(OC)cc3)ccnc12` : 77.3

Response field growth (HL-60(TB) leukemia) for item `NS(=O)(=O)c1cccc(Nc2nc(SCC(=O)c3ccc([N+](=O)[O-])cc3)nc3ccccc23)c1` : 0.866

Response field growth (HL-60(TB) leukemia) for item `CCOC(=O)c1c(N)c(C#N)cn1Cc1ccc(Cl)cc1Cl` : 60.6

Response field growth (HL-60(TB) leukemia) for item `CC1=C[C@H]2O[C@@H]3C[C@H]4OC(=O)/C=C\C=C\[C@H]([C@@H](C)O)OCC/C(C)=C/C(=O)OC[C@@]2(CC1)[C@]4(C)[C@]31CO1` : -44.9

Response field growth (HL-60(TB) leukemia) for item `O=C1C[C@@H](c2ccccc2)Oc2c(Cc3ccccc3O)c(O)c(Cc3cc(Cc4cc(Cc5ccccc5O)ccc4O)ccc3O)c(O)c21` : 95.1

Response field growth (HL-60(TB) leukemia) for item `O=C1c2c(c3c4cccnc4[nH]c3c3ccc4ccccc4c23)C(=O)N1CCN1CCOCC1` : 42.2

Response field growth (HL-60(TB) leukemia) for item CC1OC(O[C@@H]2[C@H](O)C(CO)OC(O[C@H]3COC(O[C@H]4CC[C@]5(C)[C@H]6CC[C@]78OC[C@@]9(CCC(C)(C)C[C@H]97)[C@H](O)C[C@@]8(C)[C@]6(C)CC[C@H]5C4(C)C)[C@@H](OC4OC(CO)[C@@H](O)[C@@H](O)[C@@H]4O)[C@@H]3O)[C@H]2OC2OC[C@@H](O)[C@@H](O)[C@@H]2O)[C@@H](O)[C@@H](O)[C@H]1O (some centres undefined) : -61.4

Response field growth (HL-60(TB) leukemia) for item `C#C[C@]1(O)CC[C@H]2[C@@H]3CC=C4c5sc(-c6ccc(C)cc6)nc5CC[C@]4(C)[C@H]3CC[C@@]21C` : -2.49

Response field growth (HL-60(TB) leukemia) for item CCNC(=O)N1CCc2cc(OC)c(OCCc3ccc(OC)cc3)cc2C1c1ccc([N+](=O)[O-])cc1C (centres undefined) : 14

Response field growth (HL-60(TB) leukemia) for item `N#C/C(=C\c1cccc2c1OCO2)C(=O)Nc1sc2c(c1C#N)CCCC2` : 105

Response field growth (HL-60(TB) leukemia) for item `C=C(C)[C@@H]1CC[C@]2(COCCCNCCCN)CC[C@]3(C)[C@H](CC[C@@H]4[C@@]5(C)CC[C@H](O)C(C)(C)[C@@H]5CC[C@]43C)[C@@H]12` : -28.1

Response field growth (HL-60(TB) leukemia) for item `CC1=C2C(=C[C@@](C)(COC(=O)c3ccc(S(=O)(=O)F)cc3)[C@@H]2OC(=O)c2ccc(S(=O)(=O)F)cc2)C(=O)[C@](C)(O)C12CC2` : 8.8

Response field growth (HL-60(TB) leukemia) for item `CCOC(=O)c1c(N)c(C#N)cn1-c1cc(OC)c(OC)c(OC)c1` : 96.1

Response field growth (HL-60(TB) leukemia) for item `CCC(=C(c1ccc(OCCN2CCCCCC2)cc1)c1ccc(OCCN2CCCCCC2)cc1)c1ccc(Cl)cc1` : -38.8

Response field growth (HL-60(TB) leukemia) for item CCS(=O)(=O)Nc1ccc(C(=O)CC2(O)C(=O)Nc3ccccc32)cc1 (centres undefined) : 102

Response field growth (HL-60(TB) leukemia) for item Cc1[nH]c(C(=O)Nc2ccccc2OCc2cccc(C(=O)NC3CCNC3)c2)c(Cl)c1Cl (centres undefined) : 71.4

Response field growth (HL-60(TB) leukemia) for item `C#CCN(C)CCCOc1ccc(NCc2ccc(/C=C/C(=O)NO)cc2)cc1Cl` : 6.07

Response field growth (HL-60(TB) leukemia) for item `CN1CCN(c2ccc(Nc3nc(NCCCNS(=O)(=O)c4ccccc4)c4sccc4n3)cc2)CC1` : -32.9

Response field growth (HL-60(TB) leukemia) for item `C=C1CCc2nc(SCC(=O)O)ccc2N1` : 96

Response field growth (HL-60(TB) leukemia) for item `Cc1cn(-c2cc(NC(=O)c3cncc(C#Cc4cnc5ccc(O[C@@H]6CCOC6)nn45)c3)cc(C(F)(F)F)c2)cn1` : -32.6

Response field growth (HL-60(TB) leukemia) for item `Cc1ccc(Nc2nc(SC(C)C)nc(-c3ccccc3)c2C#N)cc1` : 118

====

Test system: HL-60(TB) leukemia
Assay: NCI-60 one-dose screen, 48 h (100 = growth as untreated, 0 = no growth, -100 = all killed)
Conditions: 10 µM unless noted
This is part of a sample that, as a whole, favours compounds with a hit. Of some 83,000 tested, about 20% had one in any assay.
observable: growth (%)
A number alone suffices; assume %.

COc1ccc(-c2c3c(cn2Cc2cccc(OC)c2)-c2oncc2CCC3)cc1 = 100

Documented growth of `COc1ccc(/C=N/NC(=O)c2c(N)nn(C)c2Nc2ccccc2)cc1` : 15.5

Documented growth of `Cc1occc1-c1nc2s/c(=C\c3cn(-c4ccccc4)nc3-c3ccccc3)c(=O)n2n1` : 102
